# Tested on: Fibroblast
# assay details: Incucyte cell viability with human fibroblast; also: unitless GR value; below 1 slowed growth and below 0 cell loss
# Format: toxicity, cell-based
# stated conditions: 24 h, 10 µM, compound concentration 10 uM, replicate number 1
measured property: Growth Rate

compound: CCO[C@H](COc1ccc(C(F)(F)F)cc1)CSc1ccc(OCC(=O)[O-])c(C)c1.[Na+]
reading: 0.93
--
compound: Cc1nc2cccnc2n2c(-c3cc([C@@]4(O)CCCOC4)ccc3Cl)nnc12
reading: 0.81
--
compound: O=C(Cc1ccccc1)Nc1nnc(N2C[C@H]3C[C@@H]2CN3c2cccnn2)s1
reading: 0.33
--
compound: CN1CCN(c2ccc(C(=O)Nc3n[nH]c4ccc(Cc5cc(F)cc(F)c5)cc34)c(NC3CCOCC3)c2)CC1
reading: -0.82
--
compound: Cc1cc(C)cc(C(=O)NOCCCCCC(=O)NO)c1
reading: -0.33
--
compound: CCNC1=N[C@@H]2[C@@H](O)[C@H](O)[C@@H](CO)O[C@@H]2S1
reading: 0.92
--
compound: Nc1nc(-c2nn(Cc3ccccc3F)c3ncccc23)ncc1C1CC1
reading: 0.73
--
compound: CC/C(=C(\c1ccccc1)c1ccc(OCCN(C)C)cc1)c1ccccc1.O=C(O)CC(O)(CC(=O)O)C(=O)O [TAMOXIFEN CITRATE]
reading: -0.08
--
compound: COc1cccc(-c2c(C)c(Cc3c(F)cccc3C(F)(F)F)c3n(c2=O)[C@@H]([C@@H](N)c2ccccc2)CS3)c1F
reading: 0.83
--
compound: Cc1c[nH]c(-c2cnc(NCCNc3ccc(C#N)cn3)nc2-c2ccc(Cl)cc2Cl)n1
reading: -0.33
--
compound: CCOCCn1cc(C(=O)Nc2ccc(-n3nc(-c4cccnc4)cc3C(F)(F)F)cn2)ccc1=O
reading: 0.78
--
compound: COc1ccc(CC[C@@H](OC(=O)[C@H]2CCCCN2C(=O)[C@@H](c2cc(OC)c(OC)c(OC)c2)C2CCCCC2)c2cccc(OCCN3CCOCC3)c2)cc1OC
reading: 0.99
--
compound: Nc1ncnc2c1ccn2[C@@H]1O[C@H]([C@@H](O)c2ccccc2)[C@@H](O)[C@H]1O
reading: 0.81
--
compound: CCN(CC)C/C=C/C(=O)Nc1cc2c(Nc3ccc(F)c(Cl)c3)ncnc2cc1OCC1CC1
reading: -0.22
--
compound: Oc1c(-c2cccnc2)cnn1-c1ccccn1
reading: 0.87
--
compound: CN(C)C/C=C/C(=O)Nc1cc2c(Nc3ccc(F)c(Cl)c3)ncnc2cc1OC[C@@H]1CCCO1
reading: -0.26
--
compound: O=C(Nc1ccc(C(O)(C(F)(F)F)C(F)(F)F)cc1)c1ccc(C(F)(F)F)cc1
reading: 0.47
--
compound: COc1ccccc1N1CCN(c2ncnc3c2cnn3-c2ccccc2)CC1
reading: 0.48
--
compound: CS(=O)(=O)c1ccc(-c2cnc(N)c(C(=O)Nc3ccccc3)n2)cc1
reading: 0.85
--
compound: CN[C@@H](C)C(=O)N[C@H]1CN(C(=O)CC(C)C)CC[C@H]2CC[C@@H](C(=O)NC(c3ccccc3)c3ccccc3)N2C1=O
reading: 0.9
--
compound: C[C@H](NC(=O)c1cc(Cl)ccc1Oc1ccc(F)cc1)c1ccc(C(=O)O)cc1
reading: 0.86
--
compound: CCN(C(=O)c1cc(F)ccc1Oc1cncnc1N1CC2(CCN(C[C@H]3CC[C@H](NS(=O)(=O)CC)CC3)CC2)C1)C(C)C
reading: 0.88
--
compound: CN(c1ccc(C(F)(F)F)cc1)S(=O)(=O)c1ccc(C(=O)Nc2nc(-c3ccccn3)cs2)cc1
reading: 0.92

Origin of values: ChEMBL document CHEMBL5303304
